biological target: SARS-CoV-2 helicase (nsp13) (Severe acute respiratory syndrome coronavirus 2, UniProt P0DTD1); test: biochemical; format: biochemical
Hi there, I'd appreciate the recorded DTT nsp13 inhibition [%] 20 µM (DTT HC Helicase inhibition [%]) for every entry that follows.
Numbers only, in %.

# count of solved cases: 2
CC1(C)C(/C=C/C=C/C=C/C=C2\N(CCCCS(=O)(=O)O)c3ccc4ccccc4c3C2(C)C)=[N+](CCCCS(=O)(=O)[O-])c2ccc3ccccc3c21 [cardiogreen] : 94.06
Cc1ccc(C(=O)Nc2ccc(S(=O)(=O)O)c3cc(S(=O)(=O)O)cc(S(=O)(=O)O)c23)cc1NC(=O)c1cccc(NC(=O)Nc2cccc(C(=O)Nc3cc(C(=O)Nc4ccc(S(=O)(=O)O)c5cc(S(=O)(=O)O)cc(S(=O)(=O)O)c45)ccc3C)c2)c1 [suramin hexasodium] : 92.60

# query: DTT nsp13 inhibition [%] 20 µM (DTT HC Helicase inhibition [%]) of entry O=C(O[C@@H]1Cc2c(O)cc(O)cc2O[C@@H]1c1cc(O)c(O)c(O)c1)c1cc(O)c(O)c(O)c1 [(−)-epigallocatechin gallate]
78.10

---

Recorded below: PicoGreen effect [%] 20 µM, system annealed dsDNA substrate.
Give bare numbers, in %.

Each compound below has a recorded value; state its PicoGreen effect [%] 20 µM.
1. N#C/C(=C\c1ccc(O)c(O)c1)C(=O)OCCc1cccs1
2. CN(C)[C@@H]1C(O)=C(C(N)=O)C(=O)[C@@]2(O)C(O)=C3C(=O)c4c(O)cccc4[C@@](C)(O)[C@H]3[C@H](O)[C@@H]12
3. O=c1c(O)c(-c2ccc(O)cc2O)oc2cc(O)cc(O)c12 [morin hydrate (aurantica), morin hydrate]
4. CC1=NN(c2ccc(C)c(C)c2)C(=O)/C1=N\Nc1cccc(-c2cccc(C(=O)O)c2)c1O
5. CO[C@H](C(=O)[C@@H](O)[C@@H](C)O)[C@@H]1Cc2cc3cc(O[C@H]4C[C@@H](O[C@H]5C[C@@H](O)[C@H](O)[C@@H](C)O5)[C@H](O)[C@@H](C)O4)c(C)c(O)c3c(O)c2C(=O)[C@H]1O[C@H]1C[C@@H](O[C@H]2C[C@@H](O[C@H]3C[C@](C)(O)[C@H](O)[C@@H](C)O3)[C@@H](O)[C@@H](C)O2)[C@H](O)[C@@H](C)O1
6. CCOc1ccc2nc3cc(N)ccc3c(N)c2c1 [ethacridine lactate]

1. 7.15
2. 19.99
3. 20.36
4. 21.05
5. −3.94
6. 32.09

---

biological target: SARS-CoV-2 RdRp nsp12/7/8 complex (Severe acute respiratory syndrome coronavirus 2); experiment: biochemical; assay type: biochemical; details: read-out: RdRp IC50
Provide the reported IC50 of each item.
Answers are plain numbers, in µM.

Worked set:
N#C/C(=C\c1ccc(O)c(O)c1)C(=O)OCCc1cccs1 [2-TEDC] : 7.99
O=c1c(O)c(-c2ccc(O)cc2O)oc2cc(O)cc(O)c12 [morin hydrate (aurantica), morin hydrate] : 5.96

Okay, now this compound:
Reported IC50, compound CC(C)c1ccccc1Cc1cc(C(=O)Nc2ccc(S(=O)(=O)c3ccccc3C(C)(C)C)cc2)c(O)c(O)c1O [TW-37] : ____
13.7

---

target: SARS-CoV-2 helicase (nsp13) (Severe acute respiratory syndrome coronavirus 2, UniProt P0DTD1); experiment: biochemical; format: biochemical; details: read-out: Helicase Inhibition [%] 20 µM (PS Inhibition Helicase [%])
Structures can show the parent of a compound that is named as a salt.
outcome measure: inhibition at 20 µM (%)
Give bare numbers, in %.

Solved entries (count: 5):
O=C(O[C@@H]1Cc2c(O)cc(O)cc2O[C@@H]1c1cc(O)c(O)c(O)c1)c1cc(O)c(O)c(O)c1 [(−)-epigallocatechin gallate] : 96.4
O=c1c(O)c(-c2cc(O)c(O)c(O)c2)oc2cc(O)cc(O)c12 [myricetin (cannabiscetin), myricetin] : 100
CN(C)[C@@H]1C(O)=C(C(N)=O)C(=O)[C@@]2(O)C(O)=C3C(=O)c4c(O)cccc4[C@@](C)(O)[C@H]3[C@H](O)[C@@H]12 [oxytetracycline] : 16.4
CC1=NN(c2ccc(C)c(C)c2)C(=O)/C1=N\Nc1cccc(-c2cccc(C(=O)O)c2)c1O [eltrombopag olamine] : 3.09
O=C(c1cc(O)c(O)c(O)c1)c1ccc(O)c(O)c1O [exifone] : 100

Could you tell me inhibition at 20 µM for each of these molecules? They are listed below.
1. Cc1cc(N)c2ccccc2[n+]1CCCCCCCCCC[n+]1c(C)cc(N)c2ccccc21 [dequalinium chloride]
2. C=C1c2cccc(O)c2C(=O)C2=C(O)[C@]3(O)C(=O)C(C(N)=O)=C(O)[C@@H](N(C)C)[C@@H]3[C@@H](O)[C@H]12 [methacycline hydrochloride]
3. CCOc1ccc2nc3cc(N)ccc3c(N)c2c1 [ethacridine lactate]
4. O=C(N/N=C/c1ccc(O)c(O)c1)c1cc2ccccc2cc1O [dynasore]
5. Cc1ccc(C(=O)Nc2ccc(S(=O)(=O)O)c3cc(S(=O)(=O)O)cc(S(=O)(=O)O)c23)cc1NC(=O)c1cccc(NC(=O)Nc2cccc(C(=O)Nc3cc(C(=O)Nc4ccc(S(=O)(=O)O)c5cc(S(=O)(=O)O)cc(S(=O)(=O)O)c45)ccc3C)c2)c1 [suramin hexasodium]
6. OCCOCCN1CCN(C(c2ccccc2)c2ccc(Cl)cc2)CC1 (stereo not shown) [hydroxyzine pamoate]
7. O=c1c(O)c(-c2ccc(O)c(O)c2)oc2cc(O)ccc12 [fisetin (fustel), fisetin]

[25.6, 25.2, 35.5, 7.02, 98, 4.28, 39.3]

Provide each entry's inhibition at 20 µM from the list below.
1. O=C(O)c1c(Cl)c(Cl)c(Cl)c(Cl)c1-c1c2cc(I)c(=O)c(I)c-2oc2c(I)c(O)c(I)cc12 [rose bengal sodium salt]
2. CO[C@H](C(=O)[C@@H](O)[C@@H](C)O)[C@@H]1Cc2cc3cc(O[C@H]4C[C@@H](O[C@H]5C[C@@H](O)[C@H](O)[C@@H](C)O5)[C@H](O)[C@@H](C)O4)c(C)c(O)c3c(O)c2C(=O)[C@H]1O[C@H]1C[C@@H](O[C@H]2C[C@@H](O[C@H]3C[C@](C)(O)[C@H](O)[C@@H](C)O3)[C@@H](O)[C@@H](C)O2)[C@H](O)[C@@H](C)O1 [plicamycin (mithramycin), plicamycin]
3. COc1cc(NC(C)CCCN)c2ncccc2c1 (stereo not shown) [primaquine phosphate]
4. O=C(N/N=C/c1ccc([N+](=O)[O-])o1)c1cc([N+](=O)[O-])cc([N+](=O)[O-])c1O [nifursol]

21.5
95.8
7.17
5.5

Data provenance: paper PMC10958470
